measuredOn: human GPR52 (Homo sapiens)
Sequence (Q9Y2T5 whole entry): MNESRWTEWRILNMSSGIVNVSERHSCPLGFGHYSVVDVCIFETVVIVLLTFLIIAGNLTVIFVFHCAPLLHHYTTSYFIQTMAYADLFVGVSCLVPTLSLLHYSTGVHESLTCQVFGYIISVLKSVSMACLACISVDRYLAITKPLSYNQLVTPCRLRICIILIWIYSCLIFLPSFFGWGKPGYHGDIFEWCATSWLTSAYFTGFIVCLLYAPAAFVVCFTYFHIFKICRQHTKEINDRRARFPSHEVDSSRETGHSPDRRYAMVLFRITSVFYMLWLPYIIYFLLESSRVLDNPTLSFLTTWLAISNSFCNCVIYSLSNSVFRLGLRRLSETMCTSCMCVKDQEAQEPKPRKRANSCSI
measurementProtocol: GPR52 Agonist Functional cAMP Assay
measurementContext: maximal response normalised to DMSO (0%) and maximal compound 7m (J. Med. Chem., 2014, 57, 5226) response (100%)
Exercise: for every item that follows, state its recorded Emax.
Hi, when you answer, please include the unit after the number. Thanks!

{"columns": ["smilesEntry", "reportedMeasurement"],
 "data": [
  ["CC(C)c1cc(F)cc(Cc2cc(-n3ncc4c3CCNC4=O)ccn2)c1", "91%"],
  ["O=C1NCCc2c1cnn2-c1cc(Cc2cc(F)cc(C(F)(F)F)c2)ncn1", "98%"],
  ["O=C1NCCc2c1cnn2-c1ccnc(Cc2cc(F)cc(F)c2)c1", "100%"]
]}

Give me Emax for each of these molecules, listed below.
1. O=C1NCCc2c1nnn2-c1cc(Cc2cccc(C(F)(F)F)c2)ccn1
2. O=C1NCCCc2c1nnn2-c1cc(Cc2cc(F)cc(C(F)(F)F)c2)ccn1

Result:
["90%", "90%"]

###

measuredOn: UniProt:Q9Y2T5
measurementProtocol: GPR52 Agonist Functional cAMP Assay
measurementContext: pEC50 average, HEKf cells infected with human GPR52 BacMam virus; cAMP HTRF; 30 min at 37° C.
Exercise: for every item that follows, state its recorded pEC50.
Answers are plain numbers, as −log10 of the molar value.

Would you please look over these solved cases?
{"columns": ["molecule", "reportedMeasurement"],
 "data": [
  ["O=C1NCCCc2c1nnn2-c1ccnc(Cc2cc(F)cc(C(F)(F)F)c2)c1 [Example 97]", 5.60],
  ["CC(C)c1cc(F)cc(Cc2cc(-n3ncc4c3CCNC4=O)ccn2)c1 [Example 71]", 7.70],
  ["O=C1NCCc2c1cnn2-c1ccnc(Cc2cc(F)cc(F)c2)c1 [Example 21]", 5.90]
]}

Give me pEC50 for each of these molecules, listed below.
1. O=C1NCCc2nn(-c3cc(Cc4cc(F)cc(C(F)(F)F)c4)ccn3)nc21 [Example 98]
2. Cc1nn(-c2ccnc(Cc3ccc(OC(F)F)nc3)c2)c2c1C(=O)NCC2 [Example 94]
3. O=C1NCCCc2c1cnn2-c1cc(Cc2cc(F)cc(C(F)(F)F)c2)ccn1 [Example 10]
4. O=C1NCCOc2c1cnn2-c1cc(Cc2cc(F)cc(C(F)(F)F)c2)ccn1 [Example 14]
5. Cc1cc(Cc2cc(-n3nc(C)c4c3CCNC4=O)ccn2)cnc1F [Example 76]
6. O=C1NCCc2c1cnn2-c1cncc(Oc2cc(F)cc(C(F)(F)F)c2)c1 [Example 103]

Result:
6.80
6.40
8.10
8.00
7.10
6.00

###

Exercise: for every item that follows, state its recorded Emax.
measuredOn: human GPR52 (Homo sapiens)
measurementProtocol: GPR52 Agonist Functional cAMP Assay;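 further: HEKf cells transduced with GPR52 BacMam for 24 h, 2000 per well, exposed to compounds 30 min at 37° C with 0.5 mM IBMX, cAMP read by HTRF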
measurementContext: maximal response normalised to DMSO (0%) and maximal compound 7m (J. Med. Chem., 2014, 57, 5226) response (100%)
Give bare numbers, in %.

Would you please look over these solved cases?
{"columns": ["compound", "Emax, %"],
 "data": [
  ["O=C1NCCc2c1cnn2-c1cc(Cc2cc(F)cc(C(F)F)c2)ccn1", 98],
  ["O=C1NCCc2c1cnn2-c1ccnc(Cc2ccc(OC(F)F)c(F)c2)c1", 70],
  ["Cc1nn(-c2ccnc(Cc3cc(F)c(Cl)c(F)c3)c2)c2c1C(=O)NCC2", 87],
  ["Cc1cc(Cc2cc(-n3nc(C)c4c3CCNC4=O)ccn2)cnc1F", 94],
  ["Cc1cc(Cc2ccnc(-n3ncc4c3CCNC4=O)c2)cnc1F", 82],
  ["CC1Cc2c(cnn2-c2ccnc(Cc3cc(F)cc(C(F)(F)F)c3)c2)C(=O)N1 (stereo not drawn) [Example 40]", 93],
  ["O=C1c2cnn(-c3cc(Cc4cc(F)cc(C(F)(F)F)c4)ccn3)c2CCN1CCO", 99],
  ["Cc1nn(-c2ccnc(Cc3cc(F)c(Cl)c(C(F)(F)F)c3)c2)c2c1C(=O)NCC2", 95]
]}

Please look at the following compound next.
Request: Could you share what Emax was measured for "COc1ccc(Cc2cc(-n3nc(C)c4c3CCNC4=O)ccn2)cn1" , tested on human GPR52 (Homo sapiens)?
Result: 74
